Each item that follows carries a reported Percent Effect.
Target: Ubiquitin-activating enzyme e1, putative (Leishmania donovani (strain BPK282A1))
Sequence (whole entry): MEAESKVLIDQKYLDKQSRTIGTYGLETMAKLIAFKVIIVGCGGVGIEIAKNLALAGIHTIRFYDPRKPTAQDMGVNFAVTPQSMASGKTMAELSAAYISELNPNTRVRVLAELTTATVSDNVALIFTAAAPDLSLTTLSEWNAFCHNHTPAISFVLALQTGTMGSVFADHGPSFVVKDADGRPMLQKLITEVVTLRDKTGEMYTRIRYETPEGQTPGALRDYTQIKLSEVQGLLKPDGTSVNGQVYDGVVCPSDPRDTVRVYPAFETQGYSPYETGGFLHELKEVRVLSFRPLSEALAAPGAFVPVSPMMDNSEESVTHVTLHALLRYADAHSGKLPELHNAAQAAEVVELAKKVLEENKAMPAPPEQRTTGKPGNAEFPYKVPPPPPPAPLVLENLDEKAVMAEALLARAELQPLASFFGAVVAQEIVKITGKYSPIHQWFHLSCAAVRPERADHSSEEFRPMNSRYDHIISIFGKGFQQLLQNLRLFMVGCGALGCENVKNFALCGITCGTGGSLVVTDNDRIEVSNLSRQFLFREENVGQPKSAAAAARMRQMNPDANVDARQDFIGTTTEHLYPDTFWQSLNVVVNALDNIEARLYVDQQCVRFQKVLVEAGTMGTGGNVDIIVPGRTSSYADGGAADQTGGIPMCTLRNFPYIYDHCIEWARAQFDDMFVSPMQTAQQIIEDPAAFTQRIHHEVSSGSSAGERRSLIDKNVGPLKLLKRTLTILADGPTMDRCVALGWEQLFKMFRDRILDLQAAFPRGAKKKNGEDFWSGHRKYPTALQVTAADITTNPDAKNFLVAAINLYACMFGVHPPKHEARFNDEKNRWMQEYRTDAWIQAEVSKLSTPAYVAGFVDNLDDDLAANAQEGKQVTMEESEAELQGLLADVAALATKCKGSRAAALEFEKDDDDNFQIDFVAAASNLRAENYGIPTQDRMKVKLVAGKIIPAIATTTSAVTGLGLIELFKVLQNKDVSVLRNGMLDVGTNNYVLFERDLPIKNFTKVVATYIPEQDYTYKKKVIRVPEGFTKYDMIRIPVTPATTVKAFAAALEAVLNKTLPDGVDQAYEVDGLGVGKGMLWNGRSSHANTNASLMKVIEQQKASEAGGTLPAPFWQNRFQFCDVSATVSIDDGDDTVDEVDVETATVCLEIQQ
Test: Leishmania donovani Ubiquitin Activating Enzyme (LdE1)
Assay type: functional
Design: scale not given: direction of the effect not stated beside the values
Conditions: 30 µM
Potency and affinity values are given separately.
Could you give me the number in %? Just the number is fine.

Solved entries:
- compound: "Cc1cnn(CC2CCCN2Cc2cc(=O)n3cccc(C)c3n2)c1 (configuration not stated)"
  Percent Effect (%): 8.11
- compound: "CC(Cn1cccn1)NC(=O)Nc1ccc(N(C)C)nc1 (configuration not stated)"
  Percent Effect (%): 1.39

**Q:** State, for Ubiquitin-activating enzyme e1, putative (Leishmania donovani (strain BPK282A1)), measured Percent Effect of the compound listed here: COCC1c2c(cnn2CC2CC2)CCN1Cc1nccs1 (configuration not stated)
**A:** 13.3

**Q:** State, for Ubiquitin-activating enzyme e1, putative (Leishmania donovani (strain BPK282A1)), measured Percent Effect of the compound listed here: CCN1CC2(CC1=O)CN(Cc1cnn(C)c1)CCN(C(C)=O)C2 (configuration not stated)
**A:** 8.11

**Q:** State, for Ubiquitin-activating enzyme e1, putative (Leishmania donovani (strain BPK282A1)), measured Percent Effect of the compound listed here: CC(C)c1nc(CN2CCCCC2)cs1
**A:** -5.2

----------
Target: Arginase-2, mitochondrial (Homo sapiens) (UniProt P78540)
Sequence (whole entry): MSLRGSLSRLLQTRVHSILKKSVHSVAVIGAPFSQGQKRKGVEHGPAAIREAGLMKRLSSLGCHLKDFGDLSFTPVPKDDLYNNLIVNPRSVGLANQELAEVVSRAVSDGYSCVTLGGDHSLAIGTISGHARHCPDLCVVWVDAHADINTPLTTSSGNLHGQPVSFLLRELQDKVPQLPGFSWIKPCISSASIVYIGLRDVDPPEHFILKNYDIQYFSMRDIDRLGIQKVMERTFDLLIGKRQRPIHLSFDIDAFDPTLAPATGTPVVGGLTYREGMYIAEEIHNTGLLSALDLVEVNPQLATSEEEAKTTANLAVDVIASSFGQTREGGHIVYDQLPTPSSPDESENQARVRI
Assay: in vitro enzyme assay to detect the production of urea directly proportional to the activity of Arginase II; also: in the data most compounds retested in dose-response had high values
Type: functional
Design: scale not given: direction of the effect not stated beside the values
Conditions: 33.3 µM
measure: Percent Effect (%)
Could you give me the number in %? Just the number is fine.

Solved entries:
- compound: "CN(C)CCN(Cc1ccc(Cl)cc1)C(=O)c1cc[nH]n1"
  unitAnnotation: "%"
  Percent Effect: 3.53
- compound: "CC(O)CNCc1ccc(OCc2ccc3c(c2)OCCO3)cc1 (stereo not drawn)"
  unitAnnotation: "%"
  Percent Effect: -2.37
- compound: "Cc1noc(C(C)C)c1C(=O)NCC(c1cccc(F)c1)N(C)C (stereo not drawn)"
  unitAnnotation: "%"
  Percent Effect: 5.32
- compound: "O=C(c1cccc2c1OCO2)N1CCCC(n2cccn2)C1 (stereo not drawn)"
  unitAnnotation: "%"
  Percent Effect: -1.2
- compound: "COc1ccc(Cl)cc1C(=O)N1CCOC2(CNCCOC2)C1 (stereo not drawn)"
  unitAnnotation: "%"
  Percent Effect: -1.43
- compound: "c1ccc(C[C@H]2CN(Cc3nccs3)CC[C@H]2OCC2CC2)cc1"
  unitAnnotation: "%"
  Percent Effect: -2.56

**Q:** Hello, please tell me recorded Percent Effect for this one: CCn1c(N)nc2cc(C(=O)NCCc3ccccc3C)cnc21
**A:** 15

**Q:** Hello, please tell me recorded Percent Effect for this one: CCN1CC2(CC1=O)CN(C(=O)c1ccco1)CCN(C(=O)N(C)C)C2 (stereo not drawn)
**A:** -8.78

**Q:** Hello, please tell me recorded Percent Effect for this one: CNC(=O)c1cccc(C2CNCCN2C)c1 (stereo not drawn)
**A:** 7.19

**Q:** Hello, please tell me recorded Percent Effect for this one: COc1c(CNCCNC(=O)Cc2ccc(F)cc2)c(C)nn1C
**A:** -4.99

**Q:** Hello, please tell me recorded Percent Effect for this one: CN(C)[C@@H]1CCN(C(=O)c2ccsc2)[C@H]1Cc1cnn(C)c1
**A:** -1.63

**Q:** Hello, please tell me recorded Percent Effect for this one: COc1ccc(C(=O)N2Cc3c(Cn4ccnc4)nn(C)c3C2)cc1
**A:** -1.63

**Q:** Hello, please tell me recorded Percent Effect for this one: Cc1ccc(-c2nc(CNCCn3cccn3)cs2)o1
**A:** 4.6

**Q:** Hello, please tell me recorded Percent Effect for this one: O=C1CC2(CCN(CC3CCOC3)CC2)CN1Cc1cc(F)cc(F)c1 (stereo not drawn)
**A:** 16.3

**Q:** Hello, please tell me recorded Percent Effect for this one: CC1CN(CC(=O)NC(=O)NCc2ccccc2)CCO1 (stereo not drawn)
**A:** -1.18

**Q:** Hello, please tell me recorded Percent Effect for this one: O=C(CO[C@@H]1CC[C@H]2[C@H]1OCCN2CC1CCOCC1)N1CCCC1
**A:** 2.08

----------
Target: Ubiquitin-activating enzyme e1, putative (Leishmania donovani (strain BPK282A1))
Sequence (whole entry): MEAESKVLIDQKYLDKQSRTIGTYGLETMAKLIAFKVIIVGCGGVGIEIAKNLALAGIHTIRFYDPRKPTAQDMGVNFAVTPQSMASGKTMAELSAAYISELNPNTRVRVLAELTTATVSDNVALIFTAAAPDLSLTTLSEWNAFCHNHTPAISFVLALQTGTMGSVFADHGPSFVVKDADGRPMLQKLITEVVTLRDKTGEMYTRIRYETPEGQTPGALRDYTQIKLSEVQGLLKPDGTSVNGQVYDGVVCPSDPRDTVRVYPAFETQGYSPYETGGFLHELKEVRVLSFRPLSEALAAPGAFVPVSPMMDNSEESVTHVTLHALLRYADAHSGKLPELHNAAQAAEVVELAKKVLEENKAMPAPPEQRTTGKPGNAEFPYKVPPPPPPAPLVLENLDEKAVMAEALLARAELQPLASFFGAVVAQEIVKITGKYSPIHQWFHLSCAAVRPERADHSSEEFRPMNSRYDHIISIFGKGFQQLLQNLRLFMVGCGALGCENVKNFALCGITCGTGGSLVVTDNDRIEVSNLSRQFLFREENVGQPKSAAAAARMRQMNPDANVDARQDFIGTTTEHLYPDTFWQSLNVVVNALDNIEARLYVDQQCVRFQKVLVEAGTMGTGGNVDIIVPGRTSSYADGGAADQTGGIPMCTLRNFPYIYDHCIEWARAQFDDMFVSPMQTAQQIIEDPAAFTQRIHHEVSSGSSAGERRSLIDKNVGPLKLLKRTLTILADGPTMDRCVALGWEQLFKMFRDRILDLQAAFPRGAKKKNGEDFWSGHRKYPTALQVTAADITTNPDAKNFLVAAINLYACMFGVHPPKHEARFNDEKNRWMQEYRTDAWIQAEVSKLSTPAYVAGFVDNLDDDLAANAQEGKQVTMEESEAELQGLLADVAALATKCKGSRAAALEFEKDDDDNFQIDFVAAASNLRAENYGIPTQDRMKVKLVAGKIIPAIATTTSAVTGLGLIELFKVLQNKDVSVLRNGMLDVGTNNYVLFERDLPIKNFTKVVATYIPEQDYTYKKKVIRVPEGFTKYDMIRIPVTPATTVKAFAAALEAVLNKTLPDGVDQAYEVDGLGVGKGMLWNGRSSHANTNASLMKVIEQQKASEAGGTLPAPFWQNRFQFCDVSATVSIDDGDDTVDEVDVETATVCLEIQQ
Experiment: Leishmania donovani Ubiquitin Activating Enzyme (LdE1)
Format: functional
Set-up: scale not given: direction of the effect not stated beside the values
Settings: 30 µM
Entries with a potency or affinity are not part of this list.
measure: Percent Effect (%)
Could you give me the number in %? Just the number is fine.

- molecule: "CC(=O)N1CC(=O)N(c2ccccc2)CC12CCN(Cc1cccs1)C2 (stereo unspecified)"
  targetOfAssay: "Ubiquitin-activating enzyme e1, putative (Leishmania donovani (strain BPK282A1))"
  measure: "Percent Effect"
  assayValue: 16
- molecule: "C[C@@H]1C[C@@H]2CCN(C(=O)c3cnccn3)C[C@H]2O1"
  targetOfAssay: "Ubiquitin-activating enzyme e1, putative (Leishmania donovani (strain BPK282A1))"
  measure: "Percent Effect"
  assayValue: -2.7
- molecule: "O=C(c1ccncc1)N1CCC(c2nc(O)cc(-c3cccnc3)n2)C1 (stereo unspecified)"
  targetOfAssay: "Ubiquitin-activating enzyme e1, putative (Leishmania donovani (strain BPK282A1))"
  measure: "Percent Effect"
  assayValue: 21.3
- molecule: "COc1c(CNCCNC(=O)c2ccco2)c(C)nn1C"
  targetOfAssay: "Ubiquitin-activating enzyme e1, putative (Leishmania donovani (strain BPK282A1))"
  measure: "Percent Effect"
  assayValue: 2.7
- molecule: "Cc1ccoc1C(=O)N1C[C@@H]2[C@@H](C1)OCC(=O)N2Cc1cccnc1"
  targetOfAssay: "Ubiquitin-activating enzyme e1, putative (Leishmania donovani (strain BPK282A1))"
  measure: "Percent Effect"
  assayValue: -15.6

Here is another molecule to look at.
**Q:** Hello, please tell me recorded Percent Effect for this one: CC(=O)Nc1nc(CN2CCCC2c2cnn(C)c2)cs1 (stereo unspecified)
**A:** 20.2

The origin of these recorded values is ChEMBL document CHEMBL3988442.
